Origin of measurements: ChEMBL document CHEMBL1132415

- EXPERIMENT_NOTES: Activity against metalloenzyme Ribonucleoside diphosphate reductase was evaluated from a subcutaneously growing murine tumor (sarcoma 180) implanted in B6D2F3 male mice at 1.0 conc

| SMILES_STRING | inhibition, % |
| --- | --- |
| Cc1cc(O)nc(N/N=C/c2c(CO)cnc(C)c2O)n1 | 0 |
| Cc1ncc(CO)c(/C=N/Nc2ncc(Cl)cc2Cl)c1O | 83 |
| CCOC(=O)C[n+]1cc(CO)c(/C=N/Nc2ncccn2)c(O)c1C | 79 |
| Cc1ncc(CO)c(/C=N/Nc2nc(Cl)c(Cl)c(Cl)c2Cl)c1O | 43 |
| Cc1ncc(CO)c(/C=N/Nc2ncccn2)c1O | 78 |
| CC(=O)OCc1cnc(C)c(OC(C)=O)c1/C=N/Nc1ncccn1 | 79 |

====

- EXPERIMENT_NOTES: Activity against metalloenzyme Ribonucleoside diphosphate reductase was evaluated from a subcutaneously growing murine tumor (sarcoma 180) implanted in B6D2F3 male mice at 0.01 conc
Form field: inhibition (one value per entry).

| SMILES_STRING | UNIT_SYMBOL | inhibition |
| --- | --- | --- |
| Cc1ncc(CO)c(/C=N/Nc2ncc(Cl)cc2Cl)c1O | % | 78 |
| CC(=O)OCc1cnc(C)c(OC(C)=O)c1/C=N/Nc1ccccn1 | % | 31 |
| CC(=O)OCc1cnc(C)c(O)c1/C=N/Nc1ncccn1 | % | 30 |
| Cc1ncc(CO)c(/C=N/CC/N=C/c2c(CO)cnc(C)c2O)c1O | % | 0 |
| Cc1ncc(CO)c(/C=N/Nc2nnc(N/N=C/c3c(CO)cnc(C)c3O)c3ccccc23)c1O | % | 0 |

====

Form field: inhibition (one value per entry).
- EXPERIMENT_NOTES: Inhibition of metalloenzyme Ribonucleoside diphosphate reductase.
- Set-up: concentration or dose not given beside the values
- MEASUREMENT_PARAMETERS: concentration not given here

| SMILES_STRING | UNIT_SYMBOL | inhibition |
| --- | --- | --- |
| Cc1ncc(CO)c(/C=N/Nc2ncccn2)c1O | % | 78 |
| Cc1c(O)c(/C=N/N=c2\ccccn2C)c(CO)c[n+]1C | % | 81 |
| CCOC(=O)C[n+]1cc(CO)c(/C=N/Nc2ccccn2)c(O)c1C | % | 15 |
| CC(=O)OCc1cnc(C)c(OC(C)=O)c1/C=N/Nc1ncccn1 | % | 73 |
| CCOC(=O)C[n+]1ccc(C(=O)N/N=C/c2cc(Br)ccc2O)cc1 | % | 81 |
| Cc1ncc(CO)c(/C=N/Nc2[nH]cnc3ncnc2-3)c1O | % | 81 |
| Cc1ncc(CO)c(/C=N/NC(=O)c2ccnc3ccccc23)c1O | % | 81 |
| Cc1cc(O)nc(N/N=C/c2c(CO)cnc(C)c2O)n1 | % | 15 |
| Cc1ncc(CO)c(/C=N/Nc2ncc(Cl)cc2Cl)c1O | % | 72 |
| Cc1ncc(CO)c(/C=N/Nc2nc(Cl)c(Cl)c(Cl)c2Cl)c1O | % | 72 |
| CCOC(=O)C[n+]1ccc(C(=O)N/N=C/c2cc(Cl)ccc2O)cc1 | % | 81 |
| CCOC(=O)C[n+]1cc(CO)c(/C=N/Nc2ncccn2)c(O)c1C | % | 72 |
| Oc1c(Cl)cc(Cl)cc1/C=N/Nc1ccccn1 | % | 82 |
| Cc1c(O)c(/C=N/Nc2ncccn2)c(CO)c[n+]1C | % | 15 |
